- method: Ratio of EC50 for Hepatitis C virus genotype 1a H77 to EC50 for Hepatitis C virus genotype 1b Con1
- Type: functional
measured_metric: Ratio EC50

> print(dat)
                           structure.string  endpoint.value
1  COc1c(C(C)(C)C)cc(N2CCC(=O)NC2=O)c2ncc(-c3ccc(NS(C)(=O)=O)cc3)cc12             1.4
2  COc1ccc(-c2cc(C(C)(C)C)c(OC)c3cc(N4CC[C@H](CNS(C)(=O)=O)C4)cnc23)c(=O)[nH]1             1.4
3  COc1c(C(C)(C)C)cc(-n2ccc(=O)[nH]c2=O)c2ncc(-c3ccc(NS(C)(=O)=O)cc3)cc12             2.2
4  COc1c(C(C)(C)C)cc(-c2ccc[nH]c2=O)c2ncc(-c3ccc(NS(C)(=O)=O)cc3)cc12             1.7
